Test system: Leishmania major
test-details: Antileishmanial activity against Leishmania major amastigotes infected in mouse RAW 264.7 cells by luciferase reporter gene assay
Assay type: functional, organism-based
protocol-conditions: RAW264.7
Overview of reported EC50 across a group of compounds:

CS(=O)(=O)N1CCN(c2ncc(-c3ccc4c(Nc5cnccn5)ccnc4c3)cn2)CC1	0.73 µM
Cc1cc2c(Nc3cnccn3)ccnc2cc1-c1cnc(N2CCN(C)CC2)nc1	1.8 µM
CN1CCN(c2ncc(-c3ccc4c(Nc5cnccn5)ccnc4c3)cn2)CC1	> 15 µM

Prompt line: Could you share which EC50 value was measured for `O=S(=O)(c1ccc(-c2ccc3nccc(N[C@@H]4CCCC[C@H]4O)c3c2)cc1)N1CCOCC1` ?
Response line: > 22 µM

Prompt line: Could you share which EC50 value was measured for `COc1ccc(NC(=O)c2cc(F)c(N3CCCN(C)CC3)cc2F)cc1Cl` ?
Response line: > 24 µM

Prompt line: Could you share which EC50 value was measured for `CN1CC2(CCN(c3ncc(-c4ccc5c(Nc6cnccn6)ccnc5c4)cn3)C2)C1` ?
Response line: > 24 µM

Prompt line: Could you share which EC50 value was measured for `Cc1cncc(Nc2ccnc3cc(-c4cnc(N5CCCN(C)CC5)nc4)ccc23)n1` ?
Response line: 9.2 µM

---

Overview of reported selectivity ratio across a group of compounds:
test-details: Selectivity index, ratio of TC50 for human HepG2 cells to EC50 for antiplasmodial activity against Plasmodium falciparum D6
Assay type: toxicity

Please review the entries below; each comes with its answer.
CN1CCCN(c2ncc(-c3ccc4c(Nc5ccccn5)ccnc4c3)cn2)CC1	487
CN1CCCN(c2ncc(-c3ccc4c(c3)ncc3c5ccccc5[nH]c43)cn2)CC1	> 161

Prompt line: Could you share which selectivity ratio value was measured for `O=S(=O)(c1ccc(-c2ccc3nccc(NCCC4CCOCC4)c3c2)cc1)N1CCOCC1` ?
Response line: > 280

---

Test system: Trypanosoma cruzi
test-details: Antitrypanosomal activity against Trypanosoma cruzi Tulahuen trypomastigotes infected in mouse NIH/3T3 cells measured after 96 hrs by beta-galactosidase reporter gene assay
Assay type: functional, organism-based
protocol-conditions: NIH3T3, 96 h
quantity: EC50

CC(C)(C)OC(=O)N1CCN(c2ncc(-c3ccc4c(Nc5cnccn5)ccnc4c3)cn2)CC1	> 50 µM
CN1CCN(c2nccc(Nc3ccc4c(Nc5cnccn5)ccnc4c3)n2)CC1	> 50 µM
c1cnc(Nc2ccnc3cc(-c4cnc(N5CCNCC5)nc4)ccc23)cn1	> 50 µM

# next compound below
Prompt line: Could you share which EC50 value was measured for `CN1CCN(c2ccnc(Nc3ccc4c(Nc5cnccn5)ccnc4c3)n2)CC1` ?
Response line: > 20 µM

---

Test system: Leishmania major
test-details: Antileishmanial activity against Leishmania major amastigotes infected in mouse RAW 264.7 cells by luciferase reporter gene assay
Assay type: functional, organism-based
protocol-conditions: RAW264.7
quantity: log10 of EC50 (log10 of the value in µM)
Recorded EC50 (log10, µM)

Please review the entries below; each comes with its answer.
CCCN1CCN(c2ncc(-c3ccc4c(Nc5cnccn5)ccnc4c3)cn2)CC1	0.63
COc1ccc(NC(=O)c2ccc(-c3cccc(N4CCOCC4)c3)cc2O)cc1Cl	-0.44
CN1CCCN(c2ncc(-c3ccc4c(Nc5cnccn5)ccnc4c3)cn2)CC1	1.38
CC(C)(C)OC(=O)N1CCN(c2ncc(-c3ccc4c(Nc5cnccn5)ccnc4c3)cn2)CC1	-0.46
CN1CCCN(c2ncc(-c3ccc4c(Nc5ccc(OC(F)(F)F)cc5)ccnc4c3)cn2)CC1	0.91

Prompt line: Could you share which log10 of EC50 value was measured for `Cc1ccc2[nH]c3c4ccc(-c5cnc(N6CCCN(C)CC6)nc5)cc4ncc3c2c1` ?
Response line: -0.36

Prompt line: Could you share which log10 of EC50 value was measured for `CN1CCN(c2ncc(Nc3ccc4c(Nc5cnccn5)ccnc4c3)cn2)CC1` ?
Response line: 0.23

---

Overview of reported pEC50 across a group of compounds:
Test system: Leishmania major
test-details: Antileishmanial activity against Leishmania major amastigotes infected in mouse RAW 264.7 cells by luciferase reporter gene assay
Assay type: functional, organism-based
protocol-conditions: RAW264.7
pEC50: −log10 of the molar value.

Prompt line: Could you share which pEC50 value was measured for `CN1CCCN(c2ncc(-c3ccc4c(Nc5ccccn5)ccnc4c3)cn2)CC1` ?
Response line: < 4.62

Prompt line: Could you share which pEC50 value was measured for `CN1CCN(c2ncc(-c3ccc4c(NCCN5CCCC5)ccnc4c3)cn2)CC1` ?
Response line: < 4.62

Prompt line: Could you share which pEC50 value was measured for CN1CCC2(CCN(c3ncc(-c4ccc5c(Nc6cnccn6)ccnc5c4)cn3)C2)C1 (stereo not given) ?
Response line: < 4.64

Prompt line: Could you share which pEC50 value was measured for `CN1CCCN(c2ncc(-c3ccc(C(=O)Nc4cccc(Cl)c4F)c(O)c3)cn2)CC1` ?
Response line: < 5.66

Prompt line: Could you share which pEC50 value was measured for `CN1CCCN(S(=O)(=O)c2ccc(-c3ccc4c(Nc5ccc(Cl)cn5)ccnc4c3)cc2)CC1` ?
Response line: 5.89

---

Overview of reported EC50 across a group of compounds:
Tested on: Leishmania major
test-details: Antileishmanial activity against Leishmania major amastigotes infected in mouse RAW 264.7 cells by luciferase reporter gene assay
Type: functional, organism-based
protocol-conditions: RAW264.7

Please review the entries below; each comes with its answer.
CN1CCN(c2ccc(-c3ccc4c(Nc5cnccn5)ccnc4c3)cc2)CC1	> 23 µM
Cc1c(-c2cnc(N3CCN(C)CC3)nc2)ccc2c(Nc3cnccn3)ccnc12	> 24 µM
O=S(=O)(c1ccc(-c2ccc3nccc(NCCN4CCCC4)c3c2)cc1)N1CCOCC1	> 21 µM
CN1CCN(c2ncc(-c3ccc4c(N[C@@H]5CCCC[C@H]5O)ccnc4c3)cn2)CC1	> 2.4 µM

Prompt line: Could you share which EC50 value was measured for `COc1ccc(NC(=O)c2ccc(-c3cnc(N4CCCN(C)CC4)nc3)cc2O)cc1Cl` ?
Response line: > 4.3 µM

Prompt line: Could you share which EC50 value was measured for `CN1CCCN(c2ncc(-c3ccc4c(Nc5cccnc5)ccnc4c3)cn2)CC1` ?
Response line: > 22 µM

Prompt line: Could you share which EC50 value was measured for `Cc1cnc(Nc2ccnc3cc(-c4cnc(N5CCCN(C)CC5)nc4)ccc23)cn1` ?
Response line: > 23 µM

Prompt line: Could you share which EC50 value was measured for `CN1CCN(c2ncc(-c3ccc4c(NCC5CCOCC5)ccnc4c3)cn2)CC1` ?
Response line: > 24 µM

Prompt line: Could you share which EC50 value was measured for `c1cnc(Nc2ccnc3cc(-c4cnc(N5CCNCC5)nc4)ccc23)cn1` ?
Response line: > 5.2 µM

Prompt line: Could you share which EC50 value was measured for `O=S(=O)(c1ccc(-c2ccc3nccc(NCCC4CCOCC4)c3c2)cc1)N1CCOCC1` ?
Response line: > 21 µM
